Numbers sourced from PubChem BioAssay (NCI).

experiment: NCI Yeast Anticancer Drug Screen. Data for the rad50 strain (AID 155);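 note: 0% = growth of vehicle-only cultures of the same strain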; conditions: S. cerevisiae rad50 strain growth inhibition; at 50.0 µM; hits give high values
Compounds without any hit were thinned out: in the full panel of roughly 79,000, 15% have a hit.
compounds and their reported growth inhibition

Compound	growth inhibition / %
CC(C=O)[Se]c1ccccc1 (centres undefined)	91.9
O=C1N[C@H]2[C@H](O)[C@H](O)[C@@H](O)[C@H](O)[C@@H]2c2cc3c(c(O)c21)OCO3	69
Cc1c(=O)n(O)c2ccccc2[n+]1[O-]	4.05
Cc1cccc(NC(=O)CCl)c1	1.65
Cc1ccc2ccccc2c1	3.9
O=C1[C@@H]2[C@H](C(=O)N1c1ccccc1)[C@H]1CC[C@H]2N1C(=O)c1ccccc1	18.9
O=C(NC(=S)N1CC1)c1ccccc1	-13.9
CC1CCCC[N-]1.CC1CCCC[N-]1.N#C[S-].N#C[S-].[Cd] (centres undefined)	93.2
O=C([CH-]C(=O)c1ccccc1)c1ccccc1.O=C([CH-]C(=O)c1ccccc1)c1ccccc1.O=C([CH-]C(=O)c1ccccc1)c1ccccc1.[Cl-].[Hf+4]	88
[O-]c1n[n+](C2CCCCC2)no1	-11.4
CCC(Br)(CC)C(N)=O	-33.5
CC1(C(=O)O)C2[Se]c3[se]ccc3C2C1(C)C(=O)O (centres undefined)	-3.45
CCOP(=O)(CC(=O)c1ccccc1)OCC	10.1
C[CH2][Sn](=[O])[c]1ccccc1	-21.9
COc1ccc(C(=O)C(CC2C(=O)NC(=O)NC2=O)c2ccc(OC)cc2)cc1 (centres undefined)	-7.65
CC(=O)C(C(C)=O)C(=O)c1ccc([N+](=O)[O-])cc1.[Cr]	-23.5
COc1cc(C2c3[nH]c4ccccc4c3[C@@H](Nc3ccc(C#N)cc3)[C@H]3COC(=O)N23)cc(OC)c1O (some centres undefined)	73.8
NC1=C(N2CC2)C(=O)C(N)=C(N2CC2)C1=O	9.1
CNC(=O)c1cc(N(CCCl)CCCl)c([N+](=O)[O-])cc1[N+](=O)[O-]	-3.15
CCCCC1(CCS)C(=O)NC(=O)NC1=O	-5.55
CCOP(=O)(OCC)/C(C#N)=C/c1ccc(C#N)cc1	30.6
[O-][n+]1c2ccccc2nn1-c1ccc(N(CCCl)CCCl)cc1	7.2
O=NNc1c[nH]c(=O)[nH]c1=O	72.6
CN(C)c1ccc(-c2ccc(N(C)C)cc2)cc1	-10.6

###

experiment: NCI Yeast Anticancer Drug Screen. Data for the sgs1 mgt1 strain (AID 161);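 note: 0% = growth of cultures given vehicle only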; conditions: S. cerevisiae sgs1 mgt1 strain, at 50.0 µM, hits give high values
Compounds without any hit were thinned out: in the full panel of roughly 79,000, 15% have a hit.
Collected growth inhibition values appear next to each entry.

Compound	growth inhibition, %
CC(=O)NC1C(O[C@H]2CC[C@@]3(C)C(CC[C@]4(C)C3CC=C3C5CC(C)(C)CC[C@]5(C(=O)O)CCC34C)C2(C)C)OC(CO)C(O)C1O (some centres undefined)	90.2
Cc1ccc(S(=O)(=O)N=S(=O)(CCCl)CCCl)cc1	97.5
CNC1C(O)CC(OC2C/C=C(\C)C/C(C)=C/C=C/CCC(C)CNC(=O)/C=C/C=C/C2C)OC1C (centres undefined)	98.3
COc1ccc(CCNCc2ccc3ccccc3n2)cc1OC	7.2
O=C1NC(=O)C2(OC3c4ccccc4C=CN3C3=C2C(=O)CCC3)C(=O)N1 (centres undefined)	-6.1
Cc1ccc2ccccc2c1	-6.05
Fc1ccc(C2(N3CCC4(CC3)OCCO4)CCCCC2)cc1	14.1
Oc1c(O)c(Br)c(Br)c(Br)c1Br	93.5
COc1cc([C@@H]2c3cc4c(c(O)c3C[C@H]3COC(=O)[C@@H]32)OCO4)cc(OC)c1O	14.2
Cc1cccc2c(=O)c([Se]c3coc4c(C)cccc4c3=O)coc12	-48.2
C1=C[N-]c2c3c(ccc2=C1)=CC=C[N-]3.C1=C[N-]c2c3c(ccc2=C1)=CC=C[N-]3.F[P-](F)(F)(F)(F)F.[Cu+2]	99.5
O=N[O-].O=N[O-].[Co].[NH2-].[NH2-].[NH2-].[NH2-]	-3.5
CN1C[C@H]2[C@@H](C1=O)[C@H](c1ccccc1)ON2C	-34
O=S(=O)(F)c1cc(Cl)c(O)cc1Cl	79.6
Oc1c(Cl)cc(Cl)cc1Cl.[Cu+2]	99.8
OC[CH2][Hg][I]	99.8
CC1=NNC(=O)C1(Br)Br	14.2
N#CS.[Ag]	75.2
CCC(C(=O)NC1CN2CCC1CC2)c1ccccc1 (centres undefined)	-27.4
S=P(NNc1ccccc1)(NNc1ccccc1)c1ccc(Cl)cc1	81.9
CO[C](=[W])c1ccccc1.[C-]#[O+].[C-]#[O+].[C-]#[O+].[C-]#[O+].[C-]#[O+]	-2.3
CCOC(=O)NP(=O)(NNc1ccccc1)NNc1ccccc1	98.8
C[CH2][Sn]([CH2]C)([O]C(=O)c1ccccc1F)[O]C(=O)c1ccccc1F	4.1
COc1cc2c(cc1OC)C13CCN4CC5=CCOC6CC(=O)N2C1C6C5CC43 (centres undefined)	-20.9
C[C@]12CCC(O)CC1=CC[C@@H]1[C@@H]2CC[C@]2(C)C(O)[C@H](n3ccnc3)C[C@@H]12 (some centres undefined)	-6.05
CCOc1ccc(Nc2nc(=O)[nH]c3ccccc23)cc1CN(CCCl)CCCl	10.5
O=C(O)[C@@H]1C2CCC(C[C@@H]1O)N2C(=O)c1ccccc1 (some centres undefined)	2.85
CC(C)CCCC(C)CO[P+](=O)OCC(C)CCCC(C)C (centres undefined)	18.5
NCCCNCCCN	-3.95
Cc1cc(N(CCCl)CCCl)ccc1CN1CCCN(Cc2ccc(N(CCCl)CCCl)cc2C)C1c1ccccc1O	11.1
COc1ccc(C2=CC3=CCC4C(CCC5(C)C(O)CCC45)C3(C)CC2)s1 (centres undefined)	29.6
C[C@]12CCNC(=O)C=C1CC[C@@H]1C2CC[C@@]2(C)C1CC[C@@H]2OC(=O)COc1ccc(N(CCCl)CCCl)cc1 (some centres undefined)	21.6
O=[N+]([O-])c1ccc(OCc2ccc(COc3ccc(S(=O)(=O)F)cc3)cc2)c(Cl)c1	-2.3
O=C(Cl)c1cc([N+](=O)[O-])cc([N+](=O)[O-])c1	45.9
CC(C)(C)[SH+]CC[SH+]C(C)(C)C.[C-]#[O+].[C-]#[O+].[C-]#[O+].[C-]#[O+].[Cr]	-7.25
Cc1cccc(C)c1[S][Pb][S]c1c(C)cccc1C	-7.9
COC(C(=O)O)(c1ccccc1)c1ccccc1	1.05
CCC1(O)C(=O)OCc2c1cc1n(c2=O)Cc2cc3cc4c(cc3nc2-1)OCO4 (centres undefined)	85.2
C[N+](C)(C)CC1CCCC(C[N+](C)(C)C)C1O (centres undefined)	76
CCN(CCCl)c1cccc(NC(=O)c2ccc(C(=O)Nc3cccc(CN(C)C)c3)cc2)c1	20.5
[N-]=[N+]=NC1C2CC3CC(C2)CC1C3 (centres undefined)	-7.2
OCC[N+]12CN3CN(CN(C3)C1)C2	20.1
C[C@@H]1C[C@@]2(O[C@@H]2C)C(=O)O[C@@H]2CCN3CC=C(COC(=O)[C@]1(C)O)[C@H]23	-7.95
CC1CCCC[N-]1.CC1CCCC[N-]1.N#C[S-].N#C[S-].[Cd] (centres undefined)	70.7
